Attribution: patent US20240199647A1

Target: SARS-Cov-2 3CLpro (Severe acute respiratory syndrome coronavirus 2, UniProt P0DTD1)
Assay: biochemical
Settings: Table A, class symbols, read-out: SARS-Cov-2 (IC50)
pIC50: −log10 of the molar value.
measured-parameter: pIC50

pIC50 lookup needed for "CN(C(=O)[C@H](COc1ccccc1)NC(=O)C(F)(F)F)[C@@H](CC1CC1)C(=O)N1C[C@@]2(C[C@H]1C#N)Oc1cccnc1NC2=O" , thanks.
> 7.70

Request: "CN(C(=O)c1ncc(-c2ccccc2)[nH]1)[C@@H](CC1CC1)C(=O)N1C[C@@]2(C[C@H]1C#N)Oc1cccnc1NC2=O"
6.70 to 7.70

Could you now look at the following compound, please?
pIC50 lookup needed for "CN(C(=O)[C@H](CC1CC1)NC(=O)C(F)(F)F)[C@@H](CC1CC1)C(=O)N1C[C@@]2(C[C@H]1C#N)Oc1cnccc1NC2=O" , thanks.
6.70 to 7.70

----------
Target: SARS-Cov-2 3CLpro (Severe acute respiratory syndrome coronavirus 2, UniProt P0DTD1)
Assay: biochemical
Settings: Table A, class symbols, read-out: SARS-Cov-2 (IC50)
measured-parameter: IC50

Give me IC50 for each of these compounds, listed below.
1. CN(C(=O)[C@H](CC1CC1)NC(=O)c1ccc(F)cc1)[C@@H](CC1CC1)C(=O)N1C[C@@]2(C[C@H]1C#N)Oc1ccccc1CNC2=O
2. C[C@H](NC(=O)C(F)(F)F)C(=O)N(C)[C@@H](CC1CC1)C(=O)N1C[C@@]2(C[C@H]1C#N)Oc1ccccc1NC2=O
3. CN(C(=O)[C@H](CC1CC1)NC(=O)C(F)(F)F)[C@@H](CC1CC1)C(=O)N1C[C@@]2(C[C@H]1C#N)Oc1cccc(F)c1NC2=O

< 20 nM
< 20 nM
< 20 nM

----------
System: SARS-CoV-2 B.1.1.7 lineage
Test: microbe, parasite or virus in culture
Format: cell-based
Conditions: Severe acute respiratory syndrome coronavirus 2; Table C; SARS-CoV-2 B.1.1.7 in A549-dual_ACE2_TMPRSS2 cells, class symbols; read-out: A549-dual_ACE2_TMPRSS2 (EC50)
measured-parameter: EC50

For orientation, consider the following solved cases.
EC50 lookup needed for "COC(=O)N[C@@H](CC1CC1)C(=O)N(C)[C@@H](CC1CC1)C(=O)N1C[C@@]2(C[C@H]1C#N)Oc1ccccc1CNC2=O" , thanks.
100 to 1000 nM

Request: "CN(C(=O)[C@H](CC1CC1)n1cc(-c2ccccc2)nn1)[C@@H](CC1CC1)C(=O)N1C[C@@]2(C[C@H]1C#N)Oc1cc(F)cc(F)c1NC2=O"
100 to 1000 nM

Request: "CN(C(=O)CCN1CCOCC1)[C@@H](CC1CC1)C(=O)N1C[C@@]2(C[C@H]1C#N)Oc1cc(F)cc(F)c1NC2=O"
100 to 1000 nM

Request: "CN(C(=O)[C@H](CC1CC1)NC(=O)C(F)(F)F)[C@@H](CC1CC1)C(=O)N1C[C@@]2(C[C@H]1C#N)Oc1cc(F)cc(F)c1NC2=O"
< 100 nM

Request: CC(C)C[C@@H](C(=O)N1CC2(C[C@H]1C#N)C(=O)Nc1ccnn12)N(C)C(=O)[C@H](C)NC(=O)C(F)(F)F (stereo partly drawn)
1000 to 10000 nM

---
EC50 lookup needed for "CN(C(=O)c1cc2c(F)cc(F)c(F)c2[nH]1)[C@@H](CC1CC1)C(=O)N1C[C@@]2(C[C@H]1C#N)Oc1ccccc1CNC2=O" , thanks.
< 100 nM

----------
Tested on: SARS-CoV-2 B.1.1.7 lineage
Experiment: microbe, parasite or virus in culture
Assay type: cell-based
Details: Severe acute respiratory syndrome coronavirus 2; Table C; SARS-CoV-2 B.1.1.7 in A549-dual_ACE2_TMPRSS2 cells, class symbols; read-out: A549-dual_ACE2_TMPRSS2 (EC50)
Consider the following molecules; for each one, report its EC50.

EC50 lookup needed for CN(C(=O)[C@H](CC1CC1)NC(=O)C(F)(F)F)[C@@H](CC1CC1)C(=O)N1C[C@@]2(C[C@H]1C#N)Oc1cccnc1NC2=O [Compound 66] , thanks.
< 0.1 µM

Request: CN(C(=O)[C@@H]1CCN(C(=O)C(F)(F)F)C1)[C@@H](CC1CC1)C(=O)N1C[C@@]2(C[C@H]1C#N)Oc1cc(F)cc(F)c1NC2=O [Compound 128]
0.1 to 1 µM

Give me EC50 for each of these molecules, listed below.
1. CN(C(=O)c1cc2cccc(Cl)c2[nH]1)[C@@H](CC1CC1)C(=O)N1C[C@@]2(C[C@H]1C#N)Oc1cc(F)cc(F)c1NC2=O [Compound 133]
2. CN(C(=O)[C@H](CC(C)(C)C)NC(=O)C(F)(F)F)[C@@H](CC1CC1)C(=O)N1C[C@@]2(C[C@H]1C#N)Oc1cc(F)cc(F)c1NC2=O [Compound 89]
3. CC(C)C[C@](C)(NC(=O)C(F)(F)F)C(=O)N(C)[C@@H](CC1CC1)C(=O)N1C[C@@]2(C[C@H]1C#N)Oc1cc(F)cc(F)c1NC2=O [Compound 100]
4. CN(C(=O)[C@@H](NC(=O)C(F)(F)F)C1CC1)[C@@H](CC1CC1)C(=O)N1C[C@@]2(C[C@H]1C#N)Oc1cccnc1NC2=O [Compound 179]
5. CN(C(=O)[C@H](CC1CC1)NC(=O)C(F)(F)F)[C@@H](CC1CC1)C(=O)N1C[C@@]2(C[C@H]1C#N)CC1(CC1)NC2=O [Compound 60]
6. CCN(C(=O)[C@H](C)NC(=O)C(F)(F)F)[C@@H](CC(C)C)C(=O)N1C[C@@]2(C[C@H]1C#N)Oc1cc(F)cc(F)c1NC2=O [Compound 106]
7. CN(C(=O)[C@H](CC1(C)CC1)NC(=O)C(F)(F)F)[C@@H](CC1(C)CC1)C(=O)N1C[C@@]2(C[C@H]1C#N)Oc1cccnc1NC2=O [Compound 215]
8. CC(C)C[C@@H](C(=O)N1C[C@@]2(CC1C#N)Oc1cc(F)cc(F)c1NC2=O)N(C)C(=O)[C@H](C)NC(=O)C(F)(F)F (some centres unmarked) [Compound 51]

0.1 to 1 µM
< 0.1 µM
0.1 to 1 µM
0.1 to 1 µM
< 0.1 µM
0.1 to 1 µM
< 0.1 µM
0.1 to 1 µM

Give me EC50 for each of these molecules, listed below.
1. CN(C(=O)[C@H](CC(C)(C)C)NC(=O)C(F)(F)F)[C@@H](CC1CC1)C(=O)N1C[C@@]2(C[C@H]1C#N)Oc1ncccc1NC2=O [Compound 204]
2. CN(C(=O)[C@H](CC1CC1)NC(=O)C(F)(F)F)[C@@H](CC1CC1)C(=O)N1C[C@@]2(CC1C#N)Oc1c(C#N)cccc1NC2=O (some centres unmarked) [Compound 124]
3. C[C@H](NC(=O)C(F)(F)F)C(=O)N(C)[C@@H](COC(C)(C)C)C(=O)N1C[C@@]2(C[C@H]1C#N)Oc1cc(F)cc(F)c1NC2=O [Compound 115]
4. CC(C)C[C@@H](C(=O)N1C[C@]2(CC(c3ccccc3)NC2=O)C[C@H]1C#N)N(C)C(=O)[C@H](C)NC(=O)C(F)(F)F (some centres unmarked) [Compound 24]
5. C[C@@H](OC(C)(C)C)[C@H](NC(=O)C(F)(F)F)C(=O)N(C)[C@@H](CC1CC1)C(=O)N1C[C@@]2(C[C@H]1C#N)Oc1cccnc1NC2=O [Compound 196]

["< 0.1 µM", "0.1 to 1 µM", "0.1 to 1 µM", "0.1 to 1 µM", "0.1 to 1 µM"]

----------
Test system: SARS-CoV-2 B.1.1.7 lineage
Assay: microbe, parasite or virus in culture
Format: cell-based
Settings: Severe acute respiratory syndrome coronavirus 2; Table C; SARS-CoV-2 B.1.1.7 in A549-dual_ACE2_TMPRSS2 cells, class symbols; read-out: A549-dual_ACE2_TMPRSS2 (EC50)
measured-parameter: EC50

For orientation, consider the following solved cases.
EC50 lookup needed for CC(C)C[C@@H](C(=O)N1C[C@]2(C[C@H]1C#N)C(=O)NC(=O)N2C)N(C)C(=O)[C@H](C)NC(=O)C(F)(F)F [Compound 10] , thanks.
1000 to 10000 nM

Request: CC(C)[C@H](NC(=O)C(F)(F)F)C(=O)N(C)[C@@H](CC1CC1)C(=O)N1C[C@@]2(C[C@H]1C#N)Oc1cccnc1NC2=O [Compound 177]
100 to 1000 nM

Request: COCC[C@H](NC(=O)C(F)(F)F)C(=O)N(C)[C@@H](CC1CC1)C(=O)N1C[C@@]2(C[C@H]1C#N)Oc1cc(F)cc(F)c1NC2=O [Compound 103]
100 to 1000 nM

Request: CC(C)C[C@@H](C(=O)N1C[C@@]2(C[C@H]1C#N)OCc1ccccc1NC2=O)N(C)C(=O)c1cc2c(F)cc(F)cc2[nH]1 [Example 4]
1000 to 10000 nM

Request: C[C@H](NC(=O)C(F)(F)F)C(=O)N(C)[C@@H](CC(C)(C)F)C(=O)N1C[C@@]2(C[C@H]1C#N)Oc1cc(F)cc(F)c1NC2=O [Compound 61]
100 to 1000 nM

Give me EC50 for each of these compounds, listed below.
1. CC(C)C[C@@H](C(=O)N1C[C@@]2(C[C@H]1C#N)Oc1cc(Cl)cc(F)c1NC2=O)N(C)C(=O)[C@H](C)NC(=O)C(F)(F)F [Compound 58]
2. CN(C(=O)[C@H](CC1CC1)NC(=O)C(F)(F)C(F)(F)F)[C@@H](CC1CC1)C(=O)N1C[C@@]2(C[C@H]1C#N)Oc1ncccc1NC2=O [Compound 184]
3. C[C@H](NC(=O)C12CC(C1)C2)C(=O)N(C)[C@@H](CC1CC1)C(=O)N1C[C@@]2(C[C@H]1C#N)Oc1cccnc1NC2=O [Compound 216]
4. CN(C(=O)c1cnc(-c2ccccc2)[nH]1)[C@@H](CC1CC1)C(=O)N1C[C@@]2(C[C@H]1C#N)Oc1cccnc1NC2=O [Compound 211]
5. Cc1c(-c2ccccc2)nn2c1NC(=O)[C@]21C[C@@H](C#N)N(C(=O)[C@H](CC(C)C)N(C)C(=O)[C@H](C)NC(=O)C(F)(F)F)C1 [Compound 130]
6. CN(C(=O)[C@H](CC1CC1)NC(=O)C1(F)CC1)[C@@H](CC1CC1)C(=O)N1C[C@@]2(CC1C#N)Oc1ccccc1CNC2=O (stereo partly drawn) [Compound 176]
7. CN(C(=O)[C@H](CC1CC1)NS(=O)(=O)C1(C)CC1)[C@@H](CC1CC1)C(=O)N1C[C@@]2(C[C@H]1C#N)Oc1cccnc1NC2=O [Compound 198]

1. 100 to 1000 nM
2. < 100 nM
3. 100 to 1000 nM
4. 100 to 1000 nM
5. 100 to 1000 nM
6. < 100 nM
7. 100 to 1000 nM
